Source listed as PubChem BioAssay AID449740.

Kindly supply the reported IC50 values for the records listed here.
- Test system: Salmonella Typhi WT vs phoP-, polymyxin IC50 shift, OD600 24 h
- PROCEDURE TEXT: polymyxin IC50 shift, round 3, mechanism study, late-stage follow-up (AID 449740)

- SMILES NOTATION: "CCn1cc(C(=O)O)c(=O)c2cc(F)c(N3CCN(C(=S)Nc4ccccc4C)CC3)cc21"
  RESULT: "19 µM"

Next, consider the following compound.
Lookup: Fill: IC50 (Salmonella Typhi WT vs phoP-, polymyxin IC50 shift, OD600 24 h) for this compound CCn1cc(C(=O)O)c(=O)c2cc(F)c(N3CCN(C(=S)Nc4ccccc4OC)CC3)cc21
Found: 19 µM

###

Would you kindly list polymyxin IC50 shift difference WT minus phoP- for each of these compounds?
- PROCEDURE TEXT: polymyxin IC50 shift, round 3, mechanism study, late-stage follow-up (AID 449740)
- TEST SETTINGS: Salmonella Typhi WT vs phoP-, polymyxin IC50 shift, OD600 24 h; at 150 µM; hits give high values
Numbers only.

- SMILES NOTATION: "O=C(Nc1ccc(Cl)cc1)N1CCCN(Cc2ccc(Br)cc2)C1"
  QUANTITATIVE RESULT: -3.85
- SMILES NOTATION: "S=C(NCCc1ccc(Cl)cc1)Nc1ccncc1"
  QUANTITATIVE RESULT: -1.02
- SMILES NOTATION: "O=C(Nc1ccc(I)cc1)N1CCCN(Cc2ccccc2F)C1"
  QUANTITATIVE RESULT: -9.38

// switching to the query compound
Lookup: State its polymyxin IC50 shift difference WT minus phoP- for this compound: O=C(Nc1ccc(Cl)cc1)N1CCCN(Cc2ccccc2Br)C1
Found: -0.534
